Experiment summary: NCI Yeast Anticancer Drug Screen. Data for the sgs1 mgt1 strain (AID 161);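 further: 0% = growth of cultures given vehicle only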
Run conditions: S. cerevisiae sgs1 mgt1 strain, at 50.0 µM, active compounds read high
About 79,000 compounds went through this panel and 15% of them were active in at least one assay; those are over-represented in the sample as a whole.
Measurement name: growth inhibition (%)
Report only the number, with the unit % understood.

Use the examples below as a reference point.
| Compound | Value units | growth inhibition |
| --- | --- | --- |
| CCCCCCCCCCCCCCCC(=O)NOCc1cscn1 | % | -3.25 |
| CCOC(=O)O/C(C)=C\c1ccccc1Cl | % | -7.75 |
| COc1cc2c(cc1OC)C(=O)/C(=C/c1ccc([N+](=O)[O-])cc1)CC2 | % | -11.9 |
| CCCCCCCCC(Br)C(Br)CCCCCCCC(=O)N(CCCC)CCCC (stereo not drawn) | % | 2.05 |

Record CN(C)CCCN1C=CC(=C2C(=O)c3ccccc3C2=O)C=C1 , field growth inhibition: 10.3

Record O=C(O)CC1CCCc2ccccc2C1=O (stereo not drawn) , field growth inhibition: 18.1

Record COc1ccc(C(=O)CC(=O)C2CCCCC2=O)cc1 (stereo not drawn) , field growth inhibition: -3.4

Record CCCCCCCC/C(C=O)=C\c1ccc(C)cc1 , field growth inhibition: 55

Record Cc1cccc(C)c1NC(=S)N(CCC#N)Cc1ccccc1 , field growth inhibition: 1.9

Record COC(=O)c1cc(-c2cccnc2)[nH]c(=O)c1C#N , field growth inhibition: -39.9

Record Cn1c(=O)c2c(nc(CN3CCOCC3)n2C)n(C)c1=O , field growth inhibition: 3.55

Record CN(C)C(=S)Oc1ccc([N+](C)(C)C)cc1 , field growth inhibition: 2.5

Record CCOC(=O)C1C(C)NC(C)C(C(=O)OCC)C1C (stereo not drawn) , field growth inhibition: 3.4

----------
Each entry below lists one item and its recorded growth inhibition value.
Experiment summary: NCI Yeast Anticancer Drug Screen. Data for the cln2 rad14 strain (AID 165);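 further: 0% = growth equal to vehicle treated cultures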
Run conditions: S. cerevisiae cln2 rad14 strain, at 50.0 µM, active compounds read high
Description: Growth inhibition of yeast strains with defined genetic alterations is measured as a screen for potential anti-cancer activity. Selected strains with alterations in DNA damage repair or cell cycle control were exposed to compounds and growth inhibition was measured relative to vehicle treated controls. The strain used in this assay is cln2 rad14
About 79,000 compounds went through this panel and 15% of them were active in at least one assay; those are over-represented in the sample as a whole. The source made the active and inactive calls. Rule as the data show it: active = growth inhibition above about 70%; inactive = the rest.

Record c1ccc(C(NC2=NCCO2)C2CC2)cc1 (stereo unspecified) , field growth inhibition: 23.3% (inactive)

Record O=C(Nc1cccc([N+](=O)[O-])c1)c1ccc(Cl)cc1 , field growth inhibition: -49.5% (inactive)

Record CC1=CC(=O)N(NC(N)=O)C1=O , field growth inhibition: -27.9% (inactive)

----------
Experiment summary: NCI Yeast Anticancer Drug Screen. Data for the cln2 rad14 strain (AID 165);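 further: 0% = growth equal to vehicle treated cultures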
Run conditions: S. cerevisiae cln2 rad14 strain, at 50.0 µM, active compounds read high
The panel holds about 79,000 compounds, 15% with a hit somewhere; the sample as a whole holds those more often. Activity calls are given as the source filed them. Rule as the data show it: active = growth inhibition above about 70%; inactive = the rest.
Measurement name: growth inhibition

Use the examples below as a reference point.
| Molecule | growth inhibition |
| --- | --- |
| CC(C)=NNC(=O)c1ccccc1CC(O)(c1ccccc1)c1ccccc1 | -35.6% (inactive) |
| Clc1ccc(-c2nnc(-c3ccc4ccccc4c3)o2)cc1 | 3.1% (inactive) |
| CCOC(=O)Nc1ccc(S(=O)(=O)c2ccc(Nc3ccnc4cc(Cl)ccc34)cc2)cc1 | -35.8% (inactive) |
| O=C1C2C(C(=O)N1c1ccccc1)C1([N+](=O)[O-])C=C3c4ccccc4N(C(=O)c4ccccc4)C32C2C(=O)N(c3ccccc3)C(=O)C21 (stereo not given) | 36.3% (inactive) |

The record that follows has no growth inhibition shown yet.
Record c1ccc(N2C3Sc4ncccc4C2Sc2ncccc23)cc1 , field growth inhibition: 6.1% (inactive)
